B1: tRNA (parent)
chain: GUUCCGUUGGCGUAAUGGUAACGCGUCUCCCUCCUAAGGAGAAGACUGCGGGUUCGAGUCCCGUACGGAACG

Variants of: B1
Assay: yeast fitness relative to wild type (ratio to wild type); higher = fitter; tRNA-Arg(CCU), competitive growth, 37 C, YPD
This sample holds only a part of the variants without activity.
Please respond with reported yeast fitness for every item in the list.
The answer should be written as a number, with no unit following it.

INPUT: Provide measured yeast fitness value, entry: A20C C46A
OUTPUT: 1.04

INPUT: Provide measured yeast fitness value, entry: C34G A40G U64C
OUTPUT: 0.578

INPUT: Provide measured yeast fitness value, entry: A40U U64C
OUTPUT: 1.08

INPUT: Provide measured yeast fitness value, entry: C5G A21G G41A
OUTPUT: 0.503

INPUT: Provide measured yeast fitness value, entry: C11U C46U A65U A69U
OUTPUT: 0.54

INPUT: Provide measured yeast fitness value, entry: U28C A37C A40U
OUTPUT: 0.568

INPUT: Provide measured yeast fitness value, entry: A43U U54A
OUTPUT: 0.683

INPUT: Provide measured yeast fitness value, entry: C11U A37G G51A
OUTPUT: 0.568
